// values below are reported IC50
Target: HCV NS5B polymerase 1b BK strain (Hepatitis C virus genotype 1b, UniProt P26663)
Construct: six-histidine tag; made in house; host or cells: E. coli
Sequence (P26663 2420-2989): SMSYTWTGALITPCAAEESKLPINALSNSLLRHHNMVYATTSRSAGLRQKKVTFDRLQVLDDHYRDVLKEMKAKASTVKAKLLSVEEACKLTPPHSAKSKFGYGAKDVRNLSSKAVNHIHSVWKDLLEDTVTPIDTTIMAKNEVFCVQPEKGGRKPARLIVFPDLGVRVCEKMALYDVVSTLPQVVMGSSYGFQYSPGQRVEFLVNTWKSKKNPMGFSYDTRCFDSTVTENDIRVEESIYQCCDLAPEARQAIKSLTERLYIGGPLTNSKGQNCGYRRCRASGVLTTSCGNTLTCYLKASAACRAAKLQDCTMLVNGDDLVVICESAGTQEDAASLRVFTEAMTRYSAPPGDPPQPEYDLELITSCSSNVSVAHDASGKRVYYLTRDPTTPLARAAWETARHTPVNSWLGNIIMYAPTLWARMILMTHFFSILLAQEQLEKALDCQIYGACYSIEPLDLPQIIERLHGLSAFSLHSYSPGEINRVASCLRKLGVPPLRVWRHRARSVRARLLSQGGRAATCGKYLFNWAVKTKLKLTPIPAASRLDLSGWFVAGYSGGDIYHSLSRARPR
Assay: HCV NS5B polymerase enzymatic inhibition assay, strain 1b BK
Format: biochemical
Settings: enzyme, strain 1b BK; read-out: HCV Polymerase Strain 1b BK IC50
// note: answer is a bare numeric in µM

Could you share which IC50 value was measured for CS(=O)(=O)N(CCCC(=O)N1CCCCC1)c1cc2oc(-c3ccc(F)cc3)c(-c3ncc[nH]3)c2cc1C1CC1 [Example 104] ?
0.052

Could you share which IC50 value was measured for CS(=O)(=O)N(CCCCCO)c1cc2oc(-c3ccc(F)cc3)c(C3=NOCN3)c2cc1C1CC1 [Example 147] ?
0.009

Could you share which IC50 value was measured for CS(=O)(=O)N(CCCC(=O)O)c1cc2oc(-c3ccc(F)cc3)c(-c3ncc[nH]3)c2cc1C1CC1 [Example 89] ?
0.065

Could you share which IC50 value was measured for C=C(c1ccccc1)c1ccc(-c2oc3cc(N(CCC(C)C)S(C)(=O)=O)c(C4CC4)cc3c2-c2ncc[nH]2)cc1 [Example 167] ?
0.16

---
Could you share which IC50 value was measured for CCS(=O)(=O)CCN(c1cc2oc(-c3ccc(F)cc3)c(C3=NOCCN3)c2cc1C1CC1)S(C)(=O)=O [Example 142] ?
0.042

Could you share which IC50 value was measured for CS(=O)(=O)N(CC#N)c1cc2oc(-c3ccc(F)cc3)c(-c3ncc[nH]3)c2cc1C1CC1 [Example 63] ?
0.047

Could you share which IC50 value was measured for CS(=O)(=O)CCCN(c1cc2oc(-c3ccc(F)cc3)c(C3=NOCCN3)c2cc1C1CC1)S(C)(=O)=O [Example 140] ?
0.042

Could you share which IC50 value was measured for C[S+]([O-])CCCN(c1cc2oc(-c3ccc(F)cc3)c(C3=NOCCN3)c2cc1C1CC1)S(C)(=O)=O (stereo not drawn) [Example 139] ?
0.009

Could you share which IC50 value was measured for CC(C)CCN(c1cc2oc(-c3ccc(F)cc3)c(-c3ncc[nH]3)c2cc1C1CC1)S(C)(=O)=O [Example 4] ?
0.011
